All values here come from patent US11628181B2.

Tested on: VEEV
Assay procedure: microbe, parasite or virus in culture
Type: cell-based
Run parameters: Venezuelan equine encephalitis virus, Astrocyte, read-out: Viral Inh. 50 uM
Measured property: inhibition at 50 µM (%)

> print(dat)
                                   molecule  value.unit  reported.result
1  CCCCCCCOC(=O)ONc1ccn([C@@H]2O[C@H](CO)C(O)C2O)c(=O)n1 (stereo partly shown) [drawing 84]           %              100
2  O=c1nc(NO)ccn1[C@@H]1O[C@H](CO)C(O)C1O (stereo partly shown) [drawing 83]           %              100
3  CCCCCCCNC(=O)ONc1ccn([C@@H]2O[C@H](CO)C(O)C2O)c(=O)n1 (stereo partly shown) [drawing 87]           %               37
4  CC(C)OC(=O)[C@H](C)NP(=O)(OC[C@H]1O[C@@H](n2ccc(NO)nc2=O)C(O)C1O)Oc1ccccc1 (stereo partly shown) [drawing 85]           %               96

---

Test system: VEEV
Assay procedure: microbe, parasite or virus in culture
Assay type: cell-based
Run parameters: Venezuelan equine encephalitis virus, HeLa, read-out: Viral Inh. 50 uM
Here the recorded inhibition at 50 µM is given for each entry.
Measured property: inhibition at 50 µM

> print(dat)
                                   compound  reported.result
1  O=c1nc(NO)ccn1[C@@H]1O[C@H](CO)C(O)C1O (some centres unmarked) [drawing 78]             100%
2  O=c1nc(NO)c(F)cn1[C@@H]1O[C@H](CO)C(O)C1O (some centres unmarked) [drawing 81]              98%
3  CCCCCCCNC(=O)ONc1ccn([C@@H]2O[C@H](CO)C(O)C2O)c(=O)n1 (some centres unmarked) [drawing 82]             100%
4  CCCCCCCOC(=O)ONc1ccn([C@@H]2O[C@H](CO)C(O)C2O)c(=O)n1 (some centres unmarked) [drawing 79]             100%
5  CC(C)OC(=O)[C@H](C)NP(=O)(OC[C@H]1O[C@@H](n2ccc(NO)nc2=O)C(O)C1O)Oc1ccccc1 (some centres unmarked) [drawing 80]             100%

---

Assay procedure: Rodent pharmacokinetic experiment in mice
Assay type: in vivo, DBA-1J mice
Run parameters: female, DBA-1J, mouse, plasma, after PO dosing, read-out: plasma T1/2
Measured property: half-life

> print(dat)
                                   compound  measured.property  reported.result
1  O=c1nc(NO)ccn1[C@@H]1O[C@H](CO)[C@H](O)C1O (stereo partly shown)          half-life     4.1 to 4.7 h

---

Examples of compounds with documented Cell Viability 10 uM follow.
Test system: HeLa
Run parameters: human
Measured property: Cell Viability 10 uM

> print(dat)
                                   compound  test.system     measured.property     reported.result
1  O=c1nc(NO)ccn1[C@@H]1O[C@H](CO)C(O)C1O (some centres unmarked) [drawing 78]         HeLa  Cell Viability 10 uM  116% ± 24% (n = 4)
2  CC(C)OC(=O)[C@H](C)NP(=O)(OC[C@H]1O[C@@H](n2ccc(NO)nc2=O)C(O)C1O)Oc1ccccc1 (some centres unmarked) [drawing 80]         HeLa  Cell Viability 10 uM  137% ± 16% (n = 4)
3  O=c1nc(NO)c(F)cn1[C@@H]1O[C@H](CO)C(O)C1O (some centres unmarked) [drawing 81]         HeLa  Cell Viability 10 uM    55% ± 4% (n = 4)
4  CCCCCCCNC(=O)ONc1ccn([C@@H]2O[C@H](CO)C(O)C2O)c(=O)n1 (some centres unmarked) [drawing 82]         HeLa  Cell Viability 10 uM  151% ± 16% (n = 4)
5  CCCCCCCOC(=O)ONc1ccn([C@@H]2O[C@H](CO)C(O)C2O)c(=O)n1 (some centres unmarked) [drawing 79]         HeLa  Cell Viability 10 uM  116% ± 20% (n = 4)

---

Assay procedure: Rodent pharmacokinetic experiment in mice
Assay type: in vivo, DBA-1J mice
Run parameters: female, DBA-1J, mouse, plasma, PO 300 mg/kg
Measured property: Cmax (ng/mL)

> print(dat)
                                   compound  value.unit  reported.result
1  O=c1nc(NO)ccn1[C@@H]1O[C@H](CO)[C@H](O)C1O (stereo partly shown)       ng/mL             11.7

---

Reported Cell Viability 50 uM by item:
Test system: U2OS cell line
Assay procedure: Cell viability, U2OS cell line (Chikungunya screen)
Run parameters: 50 uM
Measured property: Cell Viability 50 uM

> print(dat)
                                   compound     measured.property    reported.result
1  CCCCCCCOC(=O)ONc1ccn([C@@H]2O[C@H](CO)C(O)C2O)c(=O)n1 (some centres unmarked) [drawing 74]  Cell Viability 50 uM   79% ± 8% (n = 4)
2  CC(C)OC(=O)[C@H](C)NP(=O)(OC[C@H]1O[C@@H](n2ccc(NO)nc2=O)C(O)C1O)Oc1ccccc1 (some centres unmarked) [drawing 75]  Cell Viability 50 uM   99% ± 8% (n = 4)
3  CCCCCCCNC(=O)ONc1ccn([C@@H]2O[C@H](CO)C(O)C2O)c(=O)n1 (some centres unmarked) [drawing 77]  Cell Viability 50 uM  96% ± 11% (n = 4)
4  O=c1nc(NO)ccn1[C@@H]1O[C@H](CO)C(O)C1O (some centres unmarked) [drawing 73]  Cell Viability 50 uM  79% ± 10% (n = 4)
5  O=c1nc(NO)c(F)cn1[C@@H]1O[C@H](CO)C(O)C1O (some centres unmarked) [drawing 76]  Cell Viability 50 uM   53% ± 2% (n = 4)

---

System: U2OS cell line
Assay procedure: Cell viability, U2OS cell line (Chikungunya screen)
Run parameters: 10 uM
Overview of recorded Cell Viability 10 uM for various compounds
Measured property: Cell Viability 10 uM

> print(dat)
                                   compound    reported.result
1  O=c1nc(NO)ccn1[C@@H]1O[C@H](CO)C(O)C1O (some centres unmarked) [drawing 73]   97% ± 5% (n = 4)
2  CC(C)OC(=O)[C@H](C)NP(=O)(OC[C@H]1O[C@@H](n2ccc(NO)nc2=O)C(O)C1O)Oc1ccccc1 (some centres unmarked) [drawing 75]   99% ± 6% (n = 4)
3  O=c1nc(NO)c(F)cn1[C@@H]1O[C@H](CO)C(O)C1O (some centres unmarked) [drawing 76]   81% ± 4% (n = 4)
4  CCCCCCCOC(=O)ONc1ccn([C@@H]2O[C@H](CO)C(O)C2O)c(=O)n1 (some centres unmarked) [drawing 74]   93% ± 4% (n = 4)
5  CCCCCCCNC(=O)ONc1ccn([C@@H]2O[C@H](CO)C(O)C2O)c(=O)n1 (some centres unmarked) [drawing 77]  105% ± 2% (n = 4)

---

Tested on: Vero
Assay procedure: Cell viability, Vero (MERV screen)
Format: cell-based
Run parameters: 10 uM
Measured property: Cell Viability 10 uM

> print(dat)
                                   compound  test.system     measured.property     reported.result
1  CCCCCCCNC(=O)ONc1ccn([C@@H]2O[C@H](CO)C(O)C2O)c(=O)n1 (stereo partly shown) [drawing 92]         Vero  Cell Viability 10 uM  118% ± 15% (n = 4)
2  O=c1nc(NO)ccn1[C@@H]1O[C@H](CO)C(O)C1O (stereo partly shown) [drawing 88]         Vero  Cell Viability 10 uM    75% ± 6% (n = 4)
3  CCCCCCCOC(=O)ONc1ccn([C@@H]2O[C@H](CO)C(O)C2O)c(=O)n1 (stereo partly shown) [drawing 89]         Vero  Cell Viability 10 uM    84% ± 8% (n = 4)
4  CC(C)OC(=O)[C@H](C)NP(=O)(OC[C@H]1O[C@@H](n2ccc(NO)nc2=O)C(O)C1O)Oc1ccccc1 (stereo partly shown) [drawing 90]         Vero  Cell Viability 10 uM  103% ± 14% (n = 4)

---

Below, each entry is listed alongside its reported Cell Viability 50 uM.
Test system: Astrocytes
Measured property: Cell Viability 50 uM

> print(dat)
                                   molecule  test.system     reported.result
1  O=c1nc(NO)ccn1[C@@H]1O[C@H](CO)C(O)C1O (stereo partly shown) [drawing 83]   Astrocytes    86% ± 5% (n = 3)
2  CC(C)OC(=O)[C@H](C)NP(=O)(OC[C@H]1O[C@@H](n2ccc(NO)nc2=O)C(O)C1O)Oc1ccccc1 (stereo partly shown) [drawing 85]   Astrocytes  100% ± 17% (n = 3)
3  CCCCCCCNC(=O)ONc1ccn([C@@H]2O[C@H](CO)C(O)C2O)c(=O)n1 (stereo partly shown) [drawing 87]   Astrocytes   85% ± 19% (n = 3)
4  CCCCCCCOC(=O)ONc1ccn([C@@H]2O[C@H](CO)C(O)C2O)c(=O)n1 (stereo partly shown) [drawing 84]   Astrocytes   94% ± 10% (n = 3)
